- Test summary: Apparent volume of distribution in Sprague-Dawley rat at 2 mg/kg, iv up to 24 hrs by LC-MS/MS analysis
- Applied conditions: in vivo, read-out: Vz
Property measured: Vd (L/kg)
Supply the numeric figure in L/kg, leaving out any unit text.

Query block: For the compound CN(C)CCCNc1nc(-c2[nH]c3ccccc3c2C=O)nc2ccccc12 , what Vd is on record?
Result block: 33.8

* * *

- Test summary: MRT(0 to infinity) in Sprague-Dawley rat at 5 mg/kg, po up to 24 hrs by LC-MS/MS analysis
- Type: ADME, organism-based
- Applied conditions: in vivo
Property measured: MRT inf (h)
Write the value in h as a bare number.

Query block: Please look up its MRT inf: COc1ccc2[nH]c(-c3nc(NCCCCN4CCCC4)c4ccccc4n3)c(C=O)c2c1
Result block: 7.5

Query block: So what's the measured MRT inf for this one? CN(C)CCCNc1nc(-c2[nH]c3ccccc3c2C=O)nc2ccccc12
Result block: 9.62

* * *

- Test summary: AUC(0 to t) in Sprague-Dawley rat at 2 mg/kg, iv up to 24 hrs by LC-MS/MS analysis
- Applied conditions: in vivo
Property measured: AUC(0-t) at 24 h (ng·h/mL)
Just the number in ng·h/mL, nothing appended.

Query block: For CN(C)CCCNc1nc(-c2[nH]c3ccccc3c2C=O)nc2ccccc12 , what is its reported AUC(0-t) at 24 h?
Result block: 635

* * *

- Test summary: Stability in Sprague-Dawley rat liver microsomes assessed as rate constant […] up to 60 mins in presence of NADPH by LC-MS/MS analysis
- Assay type: ADME, Microsome
Answer each item with its documented k el at 1 h.
Respond with the bare value in s⁻¹.

Query block: Suppose we examine the compound COc1ccc2[nH]c(-c3nc(NCCCCN4CCCC4)c4ccccc4n3)c(C=O)c2c1 ; what k el at 1 h value has been reported?
Result block: 6.17e-05

Query block: Please report the recorded k el at 1 h for CCN(CC)CCCCNc1nc(-c2[nH]c3ccc(OC)cc3c2C=O)nc2ccccc12 .
Result block: 4.5e-05

Query block: Requested field: k el at 1 h. Item: O=Cc1c(-c2nc(NCCCCN3CCCC3)c3ccccc3n2)[nH]c2ccccc12
Result block: 4.67e-05

Query block: Entry CN(C)CCCNc1nc(-c2[nH]c3ccccc3c2C=O)nc2ccccc12 has what k el at 1 h?
Result block: 8.83e-05

Query block: Quick one: k el at 1 h of COc1ccc2[nH]c(-c3nc(NCCN4CCCC4)c4ccccc4n3)c(C=O)c2c1 ?
Result block: 0.00011

* * *

- Test summary: Half life in Sprague-Dawley rat at 5 mg/kg, po up to 24 hrs by LC-MS/MS analysis
- Type: ADME, organism-based
- Applied conditions: in vivo
I'd be grateful if you could share measured half-life for these entries.
Just the number in h, nothing appended.

Query block: Fill in: half-life of COc1ccc2[nH]c(-c3nc(NCCCCN4CCCC4)c4ccccc4n3)c(C=O)c2c1 is ___
Result block: 4.2

Query block: I have this compound here, CN(C)CCCNc1nc(-c2[nH]c3ccccc3c2C=O)nc2ccccc12 , and I need its recorded half-life.
Result block: 5.1

* * *

- Test summary: AUC(0 to infinity) in Sprague-Dawley rat at 2 mg/kg, iv up to 24 hrs by LC-MS/MS analysis
- Applied conditions: in vivo
Property measured: AUC(0-inf)
// unit must come after the numeric part

Query block: Look up AUC(0-inf): CN(C)CCCNc1nc(-c2[nH]c3ccccc3c2C=O)nc2ccccc12
Result block: 671 ng·h/mL

* * *

So I've got a bunch of molecules here, and I need their EC50 values.
- Tested on: 3T3-L1
- Test summary: Lipid lowering activity in mouse 3T3-L1 cells assessed as reduction in adipogenic cocktail-induced triglyceride levels incubated for 6 days by GPO-POD assay
- Type: functional, cell-based
- Applied conditions: 3T3-L1, 144 h
Express it in nM; write the number only.

Query block: For the molecule O=Cc1c(-c2nc(NCCCCN3CCCC3)c3ccccc3n2)[nH]c2ccccc12 , what EC50 is on record?
Result block: 510

Query block: For the molecule COc1ccc2[nH]c(-c3nc(NCCCCN4CCCC4)c4ccccc4n3)c(C=O)c2c1 , what EC50 is on record?
Result block: 33

Query block: Requested field: EC50. Item: COc1ccc2[nH]c(-c3nc(NCCN4CCCC4)c4ccccc4n3)c(C=O)c2c1
Result block: 310

Query block: Quick check: EC50 of CN(C)CCCNc1nc(-c2[nH]c3ccccc3c2C=O)nc2ccccc12 ?
Result block: 91

Query block: Sample CCN(CC)CCCCNc1nc(-c2[nH]c3ccc(OC)cc3c2C=O)nc2ccccc12 — what was its EC50?
Result block: 920

* * *

- Test summary: Stability in Sprague-Dawley rat liver microsomes assessed as remaining compound […] up to 60 mins in presence of NADPH by LC-MS/MS analysis
- Assay type: ADME, Microsome
- Applied conditions: read-out: Stabilty
Property measured: remaining at 1 h
// unit must come after the numeric part

Query block: Would you kindly share the measured remaining at 1 h for CCN(CC)CCCCNc1nc(-c2[nH]c3ccc(OC)cc3c2C=O)nc2ccccc12 ?
Result block: 84%

Query block: # remaining at 1 h lookup, item CN(C)CCCNc1nc(-c2[nH]c3ccccc3c2C=O)nc2ccccc12
Result block: 71%

Query block: Give the measured remaining at 1 h of COc1ccc2[nH]c(-c3nc(NCCCCN4CCCC4)c4ccccc4n3)c(C=O)c2c1 .
Result block: 80.7%

Query block: Query (compound): COc1ccc2[nH]c(-c3nc(NCCN4CCCC4)c4ccccc4n3)c(C=O)c2c1 ; field requested: remaining at 1 h
Result block: 66.6%

Query block: Could you share which remaining at 1 h value was measured for O=Cc1c(-c2nc(NCCCCN3CCCC3)c3ccccc3n2)[nH]c2ccccc12 ?
Result block: 83.9%

* * *

- Test summary: Half life in Sprague-Dawley rat at 2 mg/kg, iv up to 24 hrs by LC-MS/MS analysis
- Format: ADME, organism-based
- Applied conditions: in vivo
Property measured: half-life (h)
Give your result in h as a bare value.

Query block: Consider the molecule shown here: COc1ccc2[nH]c(-c3nc(NCCCCN4CCCC4)c4ccccc4n3)c(C=O)c2c1 What is its recorded half-life?
Result block: 4.4

* * *

- Test summary: Half life in Sprague-Dawley rat liver microsomes assessed as rate constant […] up to 60 mins in presence of NADPH by LC-MS/MS analysis
- Format: ADME, Microsome
Tag: Yes if measured half-life is not below 2 h, No if it is.

Query block: Given CCN(CC)CCCCNc1nc(-c2[nH]c3ccc(OC)cc3c2C=O)nc2ccccc12 , state whether its half-life is at least 2 h.
Result block: Yes

Query block: Answer whether half-life of COc1ccc2[nH]c(-c3nc(NCCCCN4CCCC4)c4ccccc4n3)c(C=O)c2c1 is greater than or equal to 2 h.
Result block: Yes

Query block: Assess whether reported half-life for COc1ccc2[nH]c(-c3nc(NCCN4CCCC4)c4ccccc4n3)c(C=O)c2c1 sits at 2 h or higher.
Result block: No

Query block: Reported half-life reaches at least 2 h for CN(C)CCCNc1nc(-c2[nH]c3ccccc3c2C=O)nc2ccccc12 ?
Result block: Yes

Query block: Is half-life at least 2 h? Consider O=Cc1c(-c2nc(NCCCCN3CCCC3)c3ccccc3n2)[nH]c2ccccc12
Result block: Yes

* * *

- Test summary: Oral bioavailability in Sprague-Dawley rat at 5 mg/kg up to 24 hrs by LC-MS/MS analysis
- Type: ADME, organism-based
- Applied conditions: in vivo
Property measured: bioavailability (%)
# value in %; strip the unit string

Query block: Can you share its bioavailability? I mean this compound: CN(C)CCCNc1nc(-c2[nH]c3ccccc3c2C=O)nc2ccccc12
Result block: 43.8

Query block: # lookup: bioavailability of COc1ccc2[nH]c(-c3nc(NCCCCN4CCCC4)c4ccccc4n3)c(C=O)c2c1
Result block: 48.6

* * *

- Test summary: Toxicity in ip dosed C57BL/6J mouse administered for every other days for 6 weeks
- Type: organism-based
- Applied conditions: in vivo
Property measured: LD50 at 1008 h

Query block: I have this compound here, COc1ccc2[nH]c(-c3nc(NCCCCN4CCCC4)c4ccccc4n3)c(C=O)c2c1 , and I need its recorded LD50 at 1008 h.
Result block: 500 mg/kg

* * *

- Test summary: MRT(0 to infinity) in Sprague-Dawley rat at 2 mg/kg, iv up to 24 hrs by LC-MS/MS analysis
- Assay type: ADME, organism-based
- Applied conditions: in vivo
Property measured: MRT inf (h)
Dear colleague, please return just the value in h, with no unit written.

Query block: Which MRT inf is listed for COc1ccc2[nH]c(-c3nc(NCCCCN4CCCC4)c4ccccc4n3)c(C=O)c2c1 ?
Result block: 5.7

Where do these numbers come from? They come from ChEMBL document CHEMBL4732044.
